molecular target: T1, Anti-CD28 Fab (SEQ ID NOs: 696, 697); test: phage ELISA; biotinylated anti-CD28 Fab captured on neutravidin plate, clonal phage detected with HRP anti-M13 antibody
T1 construct: In the phage ELISA the Fab was biotinylated and captured on neutravidin coated plates
T1 sequence (VH, as listed by the source, chain 1 of 2): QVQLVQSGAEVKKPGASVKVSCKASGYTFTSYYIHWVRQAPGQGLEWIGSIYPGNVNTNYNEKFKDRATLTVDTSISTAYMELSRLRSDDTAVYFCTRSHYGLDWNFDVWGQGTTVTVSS
T1 sequence (VL, as listed by the source, chain 2 of 2): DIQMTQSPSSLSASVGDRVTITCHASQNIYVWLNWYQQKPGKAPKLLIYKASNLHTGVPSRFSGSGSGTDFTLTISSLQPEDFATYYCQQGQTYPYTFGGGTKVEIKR
# Lookup of reported Phage binding ELISA, Anti-CD28 Fab signal keyed by entry
Form rule: numeric answer, no unit written next to it.

Study these solved cases before continuing.
- binder: "NCAAGAMYSWPTCL [Phage-1625]"
  recorded-value: 1.25
- binder: "SCSAGATYQWPYCF [Phage-1623]"
  recorded-value: 1.26
- binder: "SCAAGATWKWPECL [Phage-1628]"
  recorded-value: 1.24
- binder: "RCAAGAMWTWPACF [Phage-1626]"
  recorded-value: 1.25
- binder: "TCAAGATYMWPVCL [Phage-1627]"
  recorded-value: 1.24
- binder: "TCAAGATWLWPWCL [Phage-1629]"
  recorded-value: 1.23

For reference, reported Phage binding ELISA, Anti-CD28 Fab signal for TCADGAFWQWPVCL [Phage-1631] stands at 1.22

Measured Phage binding ELISA, Anti-CD28 Fab signal of TCTAGFSYKWPTCL [Phage-1621] : 1.28
